# Test system: Vero E6 cells
# assay-notes: Cell viability, Cell-Titer Glo (ATP levels), Vero E6
# Format: cell-based
# recorded-conditions: 48 h, Fig. 6C
reported-endpoint: CC50 (µM)

- smiles-representation: "CCC(C)(C)C(=O)O[C@H]1C[C@@H](C)C=C2C=C[C@H](C)[C@H](CC[C@@H]3C[C@@H](O)CC(=O)O3)[C@H]21"
  target-desc: "Vero E6 cells"
  result: 6.02

###

# assay-notes: Cell viability, Cell-Titer Glo (ATP levels), Hek 293T
# Type: cell-based
# recorded-conditions: human, Table 1, Hek 293T, read-out: CC50

- compound: "CCC(C)(C)C(=O)O[C@H]1C[C@@H](C)C=C2C=C[C@H](C)[C@H](CC[C@@H]3C[C@@H](O)CC(=O)O3)[C@H]21 [Simvastatin]"
  CC50 at 48 h, µM: 34.2

From: paper PMC10206591
